Below, each entry is listed with its recorded abundance fitness.
B1: Retinoic acid receptor beta, residues 85 to 161; numbered along this chain, P10826 (parent)
chain: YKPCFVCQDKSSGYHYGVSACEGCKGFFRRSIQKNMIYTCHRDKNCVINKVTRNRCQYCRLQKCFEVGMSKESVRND

- Variants of: B1
- METHOD_DESCRIPTION: abundance fitness (aPCA) (normalised: wild type 0, dead -1); higher = more abundant; growth selection in yeast, the domain comes from the species named
- ASSAY_CONTEXT: Homo sapiens
// no unit string in output, number only

H15N -0.015
R29V 0.084

**Query** Consider the variant shown here: Q57H What is its recorded abundance fitness?
**Result** 0.079

**Query** Entry S19K please
**Result** -0.21

**Query** Try Y1I next.
**Result** -0.01

**Query** Could you do the same for D9Q , please?
**Result** -0.6

**Query** Next variant: K25S
**Result** 0.099
